Test system: wheat germ agglutinin (Triticum aestivum), Alexa647-labelled
assayText: wheat germ agglutinin binders on compound microarrays, profiling panel, artefact control for SMM control-protein annotation, biochemical, small-molecule microarray, 635/667 nm fluorescence (AID 1140);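 also: score merges 667 nm feature emission with signal to noise over triplicate slides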
testConditions: WGA-A647 binding, 635 nm fluorescence, higher = more signal
resultType: composite z-score
The response must contain the number and no unit.

# query: composite z-score of entry `CC(C)(C)OC(=O)CC[C@]1(C(=O)N2CCOCC2)N=C(c2ccc(OCCCO)cc2)O[C@H]1c1ccccc1N=[N+]=[N-]`
1.02

Similarly, `CN(C)C(=O)[C@@]1(CCS(=O)(=O)c2ccccc2)COC(c2ccc(OCCCO)cc2)=N1` ?
0.93

Similarly, C=CCC(OC(C)=O)[C@@H]1[C@@H](N(Cc2ccc(-c3ccccc3)cc2)C(=O)Cc2ccc(OC)cc2)c2cc(OCCCO)ccc2N1C(=O)Cc1ccc2ccccc2c1 (stereo partly specified) ?
0.182

Similarly, `COc1ccc(/C=C/C=O)cc1` ?
-0.367

Similarly, `C=C(/C(=C/C[C@H](OC(C)=O)c1ccccc1OCCO)c1cnc2ccccc2c1)C(C)C` ?
1.07

Similarly, C=CCC(OC(C)=O)[C@@H]1[C@@H](N(Cc2ccc(-c3ccccc3)cc2)C(=O)c2cccc3ccccc23)c2cc(OCCCO)ccc2N1C(=O)c1ccc(-c2ccccc2)cc1 (stereo partly specified) ?
0.556

Similarly, `Cc1ccc([C@@H]2C[C@@H](Sc3ccccc3)[C@H](C(=O)O)CN2S(=O)(=O)c2ccc(C)cc2)cc1` ?
1.14

Similarly, CN1C=C(C(=O)OCCS(C)(=O)=O)C(C(=O)OCCS(C)(=O)=O)=CC(c2ccc(CO)cc2)=CC1C1CC1 (stereo unspecified) ?
0.922

Similarly, `C=CCOC(=O)[C@H]1[C@@H]2C(=O)O[C@@H](c3ccccc3)[C@@H](c3ccccc3)N2[C@@H](c2ccc(OCCOC(=O)[C@@H]3C[C@@H]4C(=O)N[C@@H](CCCCNC(C)=O)C(=O)N4[C@@H]3c3ccc(O)cc3)cc2)[C@]12C(=O)Nc1ccccc12` ?
0.8

Similarly, `COC(=O)[C@@]1(Cc2ccc(OC)cc2)[C@H]2c3cc(C(=O)N4CCCC4)n(CCN4CNCC4=O)c3C[C@H]2CN1C(=O)c1ccccc1` ?
0.949

Similarly, `CO[C@H]1O[C@H](CO)[C@@H](OC(=O)Nc2cccc(F)c2)[C@H](OC(=O)Nc2ccccc2)[C@@H]1OC(=O)Nc1ccccc1` ?
1.27

Similarly, `Cc1nc2cc(Br)ccc2c(=O)o1` ?
0.536

Similarly, `COc1ccc(CCNC(=O)[C@@H]2c3ccccc3C(=O)N(Cc3ccccc3Cl)[C@H]2c2ccc(CO)cc2)cc1` ?
0.261

Similarly, O[C@@H](Cc1ccccc1)[C@H]1C2C=CCCC=C2CN1Cc1cccc(Cl)c1 (stereo partly specified) ?
0.593

Similarly, `C=C(COC)C(=O)CC[C@@H](OC(C)=O)c1ccc(CO)o1` ?
0.397

Similarly, COc1cc(Br)cc(C(O)C2C=CC3C(=O)N(C)C(=O)C3N2N2CCCCC2)c1OC (stereo unspecified) ?
-0.0965

* * *

assayText: RPMI8226 myeloma cell viability, profiling panel, resazurin fluorescence, basal, 24 h, PK04 Diversity Set (AID 1180);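 also: RPMI8826 multiple myeloma cell line at 5000 cells per well; test concentration not given here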
testConditions: higher = more signal
resultType: z-score

# query: z-score of entry C=CCC(OC(C)=O)[C@@H]1[C@@H](N(Cc2ccc(-c3cccc(C(F)(F)F)c3)o2)C(=O)c2ccc(C)cc2)c2cc(OCCCO)ccc2N1C(=O)Cc1ccc2ccccc2c1 (stereo not given in full)
1.22

Similarly, CN1C(=O)C2C=CC(C(O)c3ccc([N+](=O)[O-])cc3)N(N3CCCCC3)C2C1=O (stereo not given) ?
-0.85

Similarly, CC1CC/C=C\[C@H]2OC34C=CCN(C(C)(C)C)C(=O)[C@H]3N(CCO)C(=O)[C@@H]4C2C(=O)O1 (stereo not given in full) ?
-0.138

Similarly, `COc1ccc(/C=C/C=O)cc1` ?
-0.495

Similarly, `C=CCNC(=O)[C@H]1[C@@H]2C(=O)O[C@@H](c3ccccc3)[C@@H](c3ccccc3)N2[C@@H](c2ccccc2OCCO)[C@]12C(=O)Nc1ccc(C#CCC(C(=O)OC)C(=O)OC)cc12` ?
-7.24

Similarly, C[C@H]1NC(=O)[C@@]23C(=O)N[C@@H](Cc4ccccc4)C2[C@H](C)[C@@]2(C)O[C@H]2C3/C=C/C/C=C\CNC(=O)[C@@H]2CCCN2C1=O (stereo not given in full) ?
1.14

Similarly, `Cc1ccc(S[C@]2(C(=O)NCCCN(C)C)CC(=O)N(Cc3ccccc3C(F)(F)F)[C@@H]2c2ccc(CO)cc2)cc1` ?
0.119

Similarly, `COCCOC(=O)N1C(=O)[C@@]2(c3ccccc31)[C@H](c1ccccc1OCCO)N1[C@H](c3ccccc3)[C@H](c3ccccc3)OC(=O)[C@H]1[C@@H]2C(=O)N1CCN(c2ncccn2)CC1` ?
-0.862

Similarly, `NC(=O)NCC#Cc1ccc2c(c1)[C@]1(C(=O)N2)[C@H](c2ccc(O)cc2)N2[C@H](c3ccccc3)[C@H](c3ccccc3)OC(=O)[C@H]2[C@@H]1C(=O)O` ?
0.772

Similarly, `COCCOC(=O)N1C(=O)[C@@]2(c3cc(C#CC4(O)CCCCCC4)ccc31)[C@H](c1ccccc1OCCO)N1[C@H](c3ccccc3)[C@H](c3ccccc3)OC(=O)[C@H]1[C@@H]2C(=O)N1CCN(c2ncccn2)CC1` ?
-0.874

Similarly, O=C1C2C=CC(C(O)c3cc(C(F)(F)F)cc(C(F)(F)F)c3)N(n3cnnc3)C2C(=O)N1Cc1ccccc1 (stereo not given) ?
-0.394

Similarly, `C=CCOC(=O)[C@H]1[C@@H]2C(=O)O[C@@H](c3ccccc3)[C@@H](c3ccccc3)N2[C@@H](c2ccc(OCCOC(=O)[C@H]3C[C@H]4C(=O)N[C@@H](CCCCNC(C)=O)C(=O)N4[C@H]3c3cccc(OCCO)c3)cc2)[C@]12C(=O)Nc1ccccc12` ?
0.491

Similarly, `O=C1O[C@@H](c2ccccc2)[C@@H](c2ccccc2)N2[C@@H](c3ccccc3OCCO)[C@]3(C(=O)Nc4ccc(C#CC5=CCCCC5)cc43)[C@@H](C(=O)N3CCCCCCC3)[C@H]12` ?
-4.11

Similarly, `COc1cc2c(cc1OC)CN(C(=O)[C@@H]1[C@H]3C(=O)O[C@H](c4ccccc4)[C@H](c4ccccc4)N3[C@H](c3ccccc3OCCO)[C@@]13C(=O)Nc1ccc(C#CCCO)cc13)CC2` ?
0.43

Similarly, `COC(=O)[C@@]1(Cc2ccc(OC)cc2)[C@@H]2C(=CC(=O)[C@H]2CC(=O)C(=O)N2CCCC2)CN1C(=O)c1ccccc1` ?
-0.663

Similarly, `[N-]=[N+]=Nc1ccccc1[C@@H]1OC(c2ccc(OCCCO)cc2)=N[C@]1(Cc1ccccc1)C(=O)N1CCOCC1` ?
-1.58

Similarly, [N-]=[N+]=NCc1ccccc1[C@@H]1OC(c2ccc(OCCCO)cc2)=N[C@]1(Cc1ccccc1)C(=O)NCC(O)CO (stereo not given in full) ?
-0.665

Similarly, `C[C@@]1([C@@H](NC(=O)c2ccc(-c3ccccc3)cc2)c2ccc(Cl)cc2)C[C@H]1C1CCCCC1` ?
-6.37

Similarly, `COc1ccc(C(=O)Nc2ccc(CN3C(=O)[C@]4(O[C@H](CCO)[C@@H]([Si](C)(C)c5ccc(OC)cc5)[C@@H]4C)c4ccccc43)cc2)cc1` ?
-6.25

Similarly, `CCCC[C@@H]1C[C@H]1[C@@H](NC(=O)C(C)(C)C)c1ccc(C(F)(F)F)cc1` ?
2.01

Similarly, `CCOC(=O)C[C@H]1[C@H](OC(=O)c2cc3ccccc3oc2=O)[C@@H](NC(=O)c2ccccc2)c2cc(OCCCO)ccc2N1C(=O)c1ccc2ccccc2n1` ?
-1.16

Similarly, `CCOC(=O)C[C@H]1[C@H](OC(=O)c2ccc(-c3ccccc3)cc2)[C@@H](NC(=O)Cc2ccc(OC)cc2)c2cc(OCCCO)ccc2N1C(=O)c1ccccc1` ?
0.0662

Similarly, CCCc1cc2c(n1Cc1cc(F)cc(F)c1)C(C)C1CN(C(=O)c3ccccc3)C(C)(C(=O)OC)C21 (stereo not given) ?
-1

Similarly, `O=C(c1ccccc1)N1Cc2ccccc2C[C@@]2(COC(c3ccc(OCCCO)cc3)=N2)C1=O` ?
0.263

Similarly, `COc1cc2c(cc1OC)CN(C(=O)[C@H]1[C@@H]3C(=O)O[C@@H](c4ccccc4)[C@@H](c4ccccc4)N3[C@@H](c3ccc(O)cc3)[C@]13C(=O)Nc1ccccc13)CC2` ?
0.0788

* * *

For each entry below, report its composite z-score value.
assayedSystem: Dihydroorotate dehydrogenase (quinone), mitochondrial (Plasmodium falciparum (isolate 3D7)) (UniProt Q08210)
Sequence (Q08210 whole entry, looked up): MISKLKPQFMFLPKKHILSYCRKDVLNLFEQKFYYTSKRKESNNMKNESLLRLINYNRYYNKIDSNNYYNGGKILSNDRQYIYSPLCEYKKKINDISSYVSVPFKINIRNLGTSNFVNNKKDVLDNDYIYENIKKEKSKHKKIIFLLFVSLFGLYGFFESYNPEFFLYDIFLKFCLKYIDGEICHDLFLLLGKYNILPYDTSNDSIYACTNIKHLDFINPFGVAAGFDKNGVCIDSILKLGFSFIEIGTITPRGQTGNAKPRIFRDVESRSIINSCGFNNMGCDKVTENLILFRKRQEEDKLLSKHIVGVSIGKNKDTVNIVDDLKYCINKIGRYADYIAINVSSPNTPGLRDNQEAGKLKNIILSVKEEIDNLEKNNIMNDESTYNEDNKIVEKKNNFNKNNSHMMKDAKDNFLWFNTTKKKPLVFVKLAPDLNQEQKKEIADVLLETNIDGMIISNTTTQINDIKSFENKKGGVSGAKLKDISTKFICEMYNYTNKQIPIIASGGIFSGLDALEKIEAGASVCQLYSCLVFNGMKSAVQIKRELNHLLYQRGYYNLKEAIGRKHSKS
assayText: PfDHODH enzyme inhibitors, primary screen, biochemical, C-terminal His tag, absorbance 600 nm (AID 1175);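 also: recombinant parasite enzyme with a five histidine tag at its C terminus; test concentration not given here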
testConditions: DCIP absorbance 600 nm, higher = more signal, called active from +8 up or from −8 down
The response must contain the number and no unit.

# query: composite z-score of entry `COCCOC(=O)N1C(=O)[C@@]2(c3cc(C#CCC(C(=O)OC)C(=O)OC)ccc31)[C@H](C(=O)N1CCN(c3ncccn3)CC1)[C@H]1C(=O)O[C@H](c3ccccc3)[C@H](c3ccccc3)N1[C@@H]2c1ccccc1OCCO`
-1.42

Similarly, `COC(=O)[C@@]1(Cc2ccc(F)cc2)[C@H]2c3cc(C(=O)N(C)C)n(Cc4cc(F)c(F)c(F)c4)c3C[C@H]2CN1C(=O)c1ccccc1` ?
0.349

Similarly, CC1(C)C2C=C(C(O)C3C=CC4C(=O)NC(=O)C4N3Nc3ccc(Cl)cc3Cl)C[C@@H]1C2 (some centres undefined) ?
0.356

Similarly, COc1cc2c(cc1O)C(C1CC1)N(Cc1sc3ccccc3c1Cl)CC2 (centres undefined) ?
-0.931

Similarly, `CC(C)C[C@@H]1NC(=O)[C@@H]2C[C@H](C(=O)O)[C@H](c3cccc(OCCO)c3)N2C1=O` ?
-1.16

Similarly, `CN(C)CCCCCCNC(=O)[C@@H]1C[C@@H]2C(=O)N[C@@H](Cc3ccccc3)C(=O)N2[C@@H]1c1ccc(O)cc1` ?
0.0288

Similarly, `C=CCNC(=O)[C@@H]1[C@H]2C(=O)O[C@H](c3ccccc3)[C@H](c3ccccc3)N2[C@H](c2ccc(OCCO)cc2)[C@@]12C(=O)Nc1ccc(C#CCC(C(=O)OC)C(=O)OC)cc12` ?
-4.92

Similarly, `COc1cc2c(cc1OC)CN(C(=O)[C@@H]1[C@H]3C(=O)O[C@H](c4ccccc4)[C@H](c4ccccc4)N3[C@H](c3ccc(O)cc3)[C@@]13C(=O)Nc1ccccc13)CC2` ?
-0.228

Similarly, C=CC1(C(=O)OC)CC=C(C(=O)OC)CC1 (centres undefined) ?
-2.11

Similarly, `COc1ccc([Si](C)(C)[C@H]2[C@H](CCO)O[C@@]3(C(=O)N(Cc4ccc(N(C=O)c5ccccc5)cc4)c4ccccc43)[C@@H]2C)cc1` ?
0.041

Similarly, `COc1ccc(CCNC(=O)[C@@]2(Sc3ccc(C)cc3)CC(=O)N(C(C)C)[C@@H]2c2ccc(CO)cc2I)cc1` ?
0.0834

Similarly, `CC(C)N1C(=O)C[C@@](C(=O)NCC(F)(F)F)(c2ccc([N+](=O)[O-])cc2)[C@H]1c1ccc(CO)cc1` ?
-0.297

Similarly, `C=CCNC(=O)[C@H]1[C@@H]2C(=O)O[C@@H](c3ccccc3)[C@@H](c3ccccc3)N2[C@@H](c2ccccc2OCCO)[C@]12C(=O)Nc1ccc(C#CCC(C(=O)OC)C(=O)OC)cc12` ?
-0.95

Similarly, `C=CCN1C(=O)[C@@]2(CC=C)N=C(c3ccc(OCCCO)cc3)O[C@H]2c2ccccc21` ?
-1.17

Attribution: PubChem BioAssay
